Test system: MDA-MB-436
Test: Cell growth inhibition, MDA-MB-436 breast cancer cells (WST-8)
Format: cell-based
Details: Homo sapiens, MDA-MB-436, 96 h; 4 days; read-out: IC50 (nM) MDA-MB-436 Cell Line (WST assay)
ENDPOINT_LABEL: IC50 (nM)

Reference set, count: 5
COc1cc2c(cc1-c1c(C)noc1C)[nH]c1nc(C)nc(Nc3c(C)cnn3C(C)(C)C)c12 :: 52.5
COc1cc2c(cc1-c1c(C)noc1C)[nH]c1nc(C)nc(Nc3ncnn3C(C)C)c12 :: 1110
COc1cc2c(cc1-c1c(C)noc1C)[nH]c1nc(C)nc(Nc3cc(C)nn3-c3ccccc3)c12 :: 148
COc1cc2c(cc1-c1c(C)noc1C)[nH]c1nc(C)nc(Nc3nn(CCO)c4ccccc34)c12 :: 97.6
COc1cc2c(cc1-c1c(C)noc1C)[nH]c1nc(C)nc(Nc3c[nH]c4ncccc34)c12 :: 363

[1] COc1cc2c(cc1-c1c(C)noc1C)[nH]c1nc(C)nc(Nc3n[nH]c(C)c3-c3ccccc3)c12
[2] COc1cc2c(cc1-c1c(C)noc1C)[nH]c1nc(C)nc(Nc3c(F)c(C4CC4)nn3C)c12
Query: Hello, I am sorting some records. Could you say if 1 or 2 has the smaller IC50 value? Give the label of your selection.
Response: 2
(2: 302 nM, 1: 719 nM)

The reported numbers originate from patent US9580430B2.
